assay: modulators of S6 phosphorylation in cells, primary screen, cell-based, A549, cytoblot, luminescence, serum-stimulated (AID 1158); settings: A549 phospho-S6 cytoblot, 5 h, higher = more signal;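 further: serum-stimulated A549 lung adenocarcinoma cells; signal is phosphorylated S6 detected by cytoblot immunostaining with HRP secondary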
Please go through the items and note down their z-score.

Enquiry: Please give measured z-score of the following entry: C=CC[C@@]1(C(=O)NCc2ccccc2)N=C(c2ccc(OCCCO)cc2)O[C@@H]1c1ccccc1N=[N+]=[N-]
Return: -0.126

Enquiry: Please give measured z-score of the following entry: CCCCC(=C=CC[C@@H](O)c1ccccc1OCCO)CCO
Return: 0.289

Enquiry: Please give measured z-score of the following entry: CN(C)CCCNC(=O)[C@@]1(C)c2ccccc2C(=O)N(Cc2cc(F)cc(C(F)(F)F)c2)[C@H]1c1ccc(CO)cc1
Return: -0.0103

Enquiry: Please give measured z-score of the following entry: C=CCNC(=O)[C@@H]1[C@H]2C(=O)O[C@H](c3ccccc3)[C@H](c3ccccc3)N2[C@H](c2ccc(OCCO)cc2)[C@@]12C(=O)Nc1ccc(C#Cc3ccc(OC)cc3)cc12
Return: 0.278

Enquiry: Please give measured z-score of the following entry: C=C[C@H](COC(C)=O)N(C(=O)OC(C)(C)C)S(=O)(=O)c1ccc(Br)cc1
Return: 0.314

Enquiry: Please give measured z-score of the following entry: COc1ccc([Si](C)(C)[C@@H]2[C@@H](CC(=O)N3Cc4ccccc4C[C@H]3CO)O[C@]3(C(=O)N(C)c4c(Br)cc(C)cc43)[C@H]2C)cc1
Return: 2.09

Enquiry: Please give measured z-score of the following entry: CC(C)c1ccc(NN2C(C(O)C(c3ccccc3)c3ccccc3)C=CC3C(=O)N(c4ccccc4)C(=O)C32)cc1 (stereo not given)
Return: -0.582

Enquiry: Please give measured z-score of the following entry: CC(C)[C@@H](CO)NC(=O)[C@H]1[C@@H](c2ccccc2)N(c2ccccc2)O[C@@H]1C
Return: 0.444

Enquiry: Please give measured z-score of the following entry: CC(C)N1C(=O)[C@@]2(Cc3ccccc31)c1ccccc1C(=O)N(C1CCCCC1)[C@H]2c1ccc(CO)cc1
Return: 0.0252

Enquiry: Please give measured z-score of the following entry: Cc1ccc(S[C@]2(C(=O)NCC(F)(F)F)CC(=O)N(C(C)C)[C@@H]2c2ccc(CO)cc2I)cc1
Return: 0.303

meta.source: PubChem BioAssay
